# Tested on: Saccharomyces cerevisiae
# procedureText: protein stability index of tFT-peptide fusion (C-terminal peptide) (PSI (0-1 scale)); higher = more stable (slower turnover)
# assayContext: genetic background: wild type; temperature: 30 C
Criterion: protein stability index meeting or surpassing 0.7. Met: fulfilled. Not met: not fulfilled.

Worked examples, 5 sequences total:
- itemSequence: "RLYVSRLFISKL [ATP8 C-terminal 12 aa]"
  targetOrTestSystem: "Saccharomyces cerevisiae"
  className: "not fulfilled"
- itemSequence: "TYFSKQFLKKEL [LTP1 C-terminal 12 aa]"
  targetOrTestSystem: "Saccharomyces cerevisiae"
  className: "fulfilled"
- itemSequence: "IPKIPKIVNGFK [DCS1 C-terminal 12 aa]"
  targetOrTestSystem: "Saccharomyces cerevisiae"
  className: "not fulfilled"
- itemSequence: "CKATSLLLIPEG [YBL108W C-terminal 12 aa]"
  targetOrTestSystem: "Saccharomyces cerevisiae"
  className: "not fulfilled"
- itemSequence: "TLTDLRDELRGL [NUP120 C-terminal 12 aa]"
  targetOrTestSystem: "Saccharomyces cerevisiae"
  className: "fulfilled"

(Q) Assess whether reported protein stability index for GKLAEILKPVFQ [GRX2 C-terminal 12 aa] sits at 0.7 or higher.
(A) not fulfilled

(Q) Is protein stability index at least 0.7? Consider ATTSLNNPYGFR [TOS7 C-terminal 12 aa]
(A) not fulfilled

(Q) Evaluate FVYERMKWNFGI [LEU5 C-terminal 12 aa] : protein stability index at minimum 0.7?
(A) not fulfilled

(Q) Could you tell me if the measured protein stability index of GLNEVTRLIKGL [HTS1 C-terminal 12 aa] reaches 0.7 or more?
(A) not fulfilled

(Q) Determine whether this sequence has protein stability index no lower than 0.7: ITRTRLDSFVKT [YBR072C-A C-terminal 12 aa]
(A) not fulfilled
